Please go through the items and note down their Cell Viability.
# System: normal Human Adult Primary Epidermal Keratinocyte cell line
# Method Summary: Keratinocyte cell viability (Trypan Blue exclusion, Example 10)
# Condition Context: 0.1 μM, keratinocytes, 1.0 nM DHT, 24 hours
Numbers only, in %.

Examples from the recorded data:
{"columns": ["Molecule", "Endpoint Label", "Unit Of Measure", "Reading"],
 "data": [
  ["O=C(CC12CC3CC(CC(C3)C1)C2)N1CCN(c2ccc(OC[C@H]3CO[C@](Cn4ccnc4)(c4ccc(Cl)cc4Cl)O3)cc2)CC1", "Cell Viability", "%", 93],
  ["CC(=O)N1CCN(c2ccc(OC[C@H]3CO[C@](Cn4ccnc4)(c4ccc(Cl)cc4Cl)O3)cc2)CC1 (racemic)", "Cell Viability", "%", 95],
  ["O=C(CC12CC3CC(CC(C3)C1)C2)NCCOCCOCC(=O)N1CCN(c2ccc(OC[C@H]3CO[C@](Cn4ccnc4)(c4ccc(Cl)cc4Cl)O3)cc2)CC1", "Cell Viability", "%", 94]
]}

Kindly consider the entry below.
Lookup: Record request: Cell Viability value, item "CC(=O)S[C@@H]1CC2=CC(=O)CC[C@]2(C)[C@H]2CC[C@@]3(C)[C@@H](CC[C@@]34CCC(=O)O4)[C@H]12"
Found: 92
